Give measured Cmax for each item. Keep answers brief.
assay: Toxicological experiment in mice, 14-day repeated oral gavage (toxicokinetic study); assay type: in vivo, mouse; conditions: ICR, mouse, po; 200 mg/kg, plasma of female animals, Day 14
Return type: number; implicit unit µg/mL.

Query string: Give the measured Cmax for N#Cc1ccc(COc2cccc(C3CCN(Cc4nc5ccc(C(=O)O)cc5n4C[C@@H]4CCO4)CC3)n2)c(F)c1 [Compound 20, reference compound]
Result string: 104

Query string: Give the measured Cmax for "O=C(O)c1ccc2nc(CN3CCC(c4cccc(OCc5ccc(C6COC6)cc5F)n4)CC3)n(C[C@@H]3CCO3)c2c1"
Result string: 117
